Target: Serine/threonine-protein kinase ULK3 (Homo sapiens, UniProt Q6PHR2); further: in the data inactive means no Kd found up to 30 µM
Sequence (Q6PHR2 whole entry): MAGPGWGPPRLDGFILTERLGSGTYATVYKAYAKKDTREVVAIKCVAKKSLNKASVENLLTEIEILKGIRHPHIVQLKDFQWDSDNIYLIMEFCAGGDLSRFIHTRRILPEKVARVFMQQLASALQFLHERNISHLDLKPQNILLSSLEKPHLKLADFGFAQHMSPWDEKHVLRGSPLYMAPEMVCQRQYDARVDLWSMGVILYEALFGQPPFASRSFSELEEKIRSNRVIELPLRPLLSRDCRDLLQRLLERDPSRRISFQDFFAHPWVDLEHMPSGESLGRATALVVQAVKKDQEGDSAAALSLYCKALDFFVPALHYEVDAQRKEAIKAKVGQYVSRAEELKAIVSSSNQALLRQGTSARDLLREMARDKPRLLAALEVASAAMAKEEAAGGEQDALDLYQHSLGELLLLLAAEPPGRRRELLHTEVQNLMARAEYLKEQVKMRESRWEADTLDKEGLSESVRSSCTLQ
The source made the active and inactive calls.
Labels: active, inactive

compound=COc1ccc2c(OCc3nnc4ccc(-c5ccccc5)nn34)ccnc2c1 class_assignment=inactive
compound=NC(=O)c1ccc(N(C(N)=O)c2c(F)cccc2F)nc1-c1ccc(F)cc1F class_assignment=inactive
compound=Cn1c(=O)c(F)c(Nc2ccc(I)cc2F)c2c(=O)n(C[C@@H](O)CO)cnc21 class_assignment=inactive
compound=CCc1cc2c(cc1N1CCC(N3CCOCC3)CC1)C(C)(C)c1[nH]c3cc(C#N)ccc3c1C2=O class_assignment=inactive
compound=CCc1nc(C(N)=O)c(Nc2ccc(N3CCC(N4CCN(C)CC4)CC3)c(OC)c2)nc1NC1CCOCC1 class_assignment=active
compound=Cc1cc(C(=O)Nc2cc(Oc3ccc4nc(NC(=O)C5CC5)cn4n3)ccc2C)n(C)n1 class_assignment=inactive
compound=CN(c1ncccc1CNc1nc(Nc2ccc3c(c2)CC(=O)N3)ncc1C(F)(F)F)S(C)(=O)=O class_assignment=inactive
compound=C=CC(=O)Nc1cccc(Nc2nc(Nc3ccc(N4CCN(C(C)=O)CC4)cc3OC)ncc2C(F)(F)F)c1 class_assignment=inactive
compound=CNC(=O)c1cc(COc2nnc(Nc3ccc(Cl)cc3)c3ccoc23)ccn1 class_assignment=inactive
compound=O=S(=O)(c1cccc2cnccc12)N1CCCNCC1 class_assignment=inactive
compound=O=c1[nH]c([C@@H]2CCCN2)nc2c1oc1ccc(Cl)cc12 class_assignment=inactive
compound=CCN1CCN(Cc2ccc(Nc3ncc(F)c(-c4cc(F)c5nc(C)n(C(C)C)c5c4)n3)nc2)CC1 class_assignment=inactive
compound=COc1cc2ncnc(Nc3ccc(O)cc3)c2cc1OC class_assignment=inactive
compound=CCN(CCCOc1ccc2c(Nc3cc(CC(=O)Nc4cccc(F)c4)n[nH]3)ncnc2c1)CCOP(=O)(O)O class_assignment=inactive
compound=O=C(NOC[C@H](O)CO)c1ccc(F)c(F)c1Nc1ccc(I)cc1F class_assignment=inactive
compound=c1cc(OCCN2CCCCC2)cc(-c2n[nH]c3ccc(-c4nc[nH]n4)cc23)c1 class_assignment=inactive
compound="COc1cc2nccc(Oc3ccc(NC(=O)C4(C(=O)Nc5ccc(F)cc5)CC4)cc3)c2cc1OC [CABOZANTINIB]" class_assignment=inactive

====

Target: Tyrosine-protein kinase CSK (Homo sapiens, UniProt P41240); further: in the data inactive means no Kd found up to 30 µM
Sequence (P41240 whole entry): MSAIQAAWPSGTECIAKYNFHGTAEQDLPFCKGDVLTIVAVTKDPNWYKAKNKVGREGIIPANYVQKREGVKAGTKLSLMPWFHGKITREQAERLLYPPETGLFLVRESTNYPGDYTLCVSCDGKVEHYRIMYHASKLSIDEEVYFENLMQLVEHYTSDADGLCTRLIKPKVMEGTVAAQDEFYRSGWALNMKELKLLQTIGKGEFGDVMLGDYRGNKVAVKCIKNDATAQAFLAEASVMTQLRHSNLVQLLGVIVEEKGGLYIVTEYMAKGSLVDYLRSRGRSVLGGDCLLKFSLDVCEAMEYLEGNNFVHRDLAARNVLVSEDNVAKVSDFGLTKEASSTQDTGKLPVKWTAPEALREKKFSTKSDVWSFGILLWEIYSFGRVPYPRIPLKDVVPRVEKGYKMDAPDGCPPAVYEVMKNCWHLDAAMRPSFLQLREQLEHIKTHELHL
Calls of active or inactive are those of the source.
Possible outcomes: true (1) (active), false (0) (inactive)

compound=O=C(O)c1ccc2c(c1)nc(Nc1cccc(Cl)c1)c1ccncc12 tested_system="Tyrosine-protein kinase CSK (Homo sapiens, UniProt P41240)" class_assignment="false (0)"
compound=COc1cc(F)c(F)c(Nc2ccc(I)cc2F)c1NS(=O)(=O)C1(C[C@H](O)CO)CC1 tested_system="Tyrosine-protein kinase CSK (Homo sapiens, UniProt P41240)" class_assignment="false (0)"
compound="COc1cc2nccc(Oc3ccc(NC(=O)C4(C(=O)Nc5ccc(F)cc5)CC4)cc3)c2cc1OC [CABOZANTINIB]" tested_system="Tyrosine-protein kinase CSK (Homo sapiens, UniProt P41240)" class_assignment="false (0)"
compound=CCc1cc2c(cc1N1CCC(N3CCOCC3)CC1)C(C)(C)c1[nH]c3cc(C#N)ccc3c1C2=O tested_system="Tyrosine-protein kinase CSK (Homo sapiens, UniProt P41240)" class_assignment="false (0)"
compound=NC[C@@](O)(c1ccc(Cl)cc1)c1ccc(-c2cn[nH]c2)cc1 tested_system="Tyrosine-protein kinase CSK (Homo sapiens, UniProt P41240)" class_assignment="false (0)"
compound=COc1ccc2c(OCc3nnc4ccc(-c5ccccc5)nn34)ccnc2c1 tested_system="Tyrosine-protein kinase CSK (Homo sapiens, UniProt P41240)" class_assignment="false (0)"
compound=O=c1[nH]c([C@@H]2CCCN2)nc2c1oc1ccc(Cl)cc12 tested_system="Tyrosine-protein kinase CSK (Homo sapiens, UniProt P41240)" class_assignment="false (0)"
compound=Cc1c(Cn2c(C)nc3c(C(=O)O)cc(N4CCOCC4)cc32)cccc1C(F)(F)F tested_system="Tyrosine-protein kinase CSK (Homo sapiens, UniProt P41240)" class_assignment="false (0)"
compound=CCOc1ccn(-c2ccc(F)cc2)c(=O)c1C(=O)Nc1ccc(Oc2ccnc(N)c2Cl)c(F)c1 tested_system="Tyrosine-protein kinase CSK (Homo sapiens, UniProt P41240)" class_assignment="false (0)"
compound=CC1(COc2ccc3c(c2)ncn3-c2ccc3cccc(N4CCC(N)CC4)c3n2)COC1 tested_system="Tyrosine-protein kinase CSK (Homo sapiens, UniProt P41240)" class_assignment="false (0)"
compound=Cc1c(NC(=O)OC[C@@H]2COCCN2)cn2ncnc(Nc3ccc4c(cnn4Cc4cccc(F)c4)c3)c12 tested_system="Tyrosine-protein kinase CSK (Homo sapiens, UniProt P41240)" class_assignment="false (0)"
compound=COc1cc2ncnc3c2cc1OCCCCCN(C)Cc1ccc(Br)cc1N3 tested_system="Tyrosine-protein kinase CSK (Homo sapiens, UniProt P41240)" class_assignment="false (0)"
compound=CC[C@@](C)(Nc1ccnc(-c2c[nH]c3ncccc23)n1)C(=O)NCC(F)(F)F tested_system="Tyrosine-protein kinase CSK (Homo sapiens, UniProt P41240)" class_assignment="false (0)"
compound=COc1cccc2cc(-c3nc([C@H]4CC[C@H](C(=O)O)CC4)n4ncnc(N)c34)[nH]c12 tested_system="Tyrosine-protein kinase CSK (Homo sapiens, UniProt P41240)" class_assignment="false (0)"
compound=O=C(NOC[C@H](O)CO)c1ccc(F)c(F)c1Nc1ccc(I)cc1F tested_system="Tyrosine-protein kinase CSK (Homo sapiens, UniProt P41240)" class_assignment="false (0)"
compound=Cc1cc(-c2cc(OC(=O)c3ccccc3)ccc2Cl)cc2nnc(Nc3ccc(OCCN4CCCC4)cc3)nc12 tested_system="Tyrosine-protein kinase CSK (Homo sapiens, UniProt P41240)" class_assignment="false (0)"
compound=NC(=O)c1ccc(N(C(N)=O)c2c(F)cccc2F)nc1-c1ccc(F)cc1F tested_system="Tyrosine-protein kinase CSK (Homo sapiens, UniProt P41240)" class_assignment="false (0)"
compound=N#CCNC(=O)c1ccc(-c2ccnc(Nc3ccc(N4CCOCC4)cc3)n2)cc1 tested_system="Tyrosine-protein kinase CSK (Homo sapiens, UniProt P41240)" class_assignment="false (0)"
compound=COc1cccc(Nc2ncnn3ccc(CN4CC[C@@H](N)[C@H](O)C4)c23)c1 tested_system="Tyrosine-protein kinase CSK (Homo sapiens, UniProt P41240)" class_assignment="true (1)"
compound=COc1cc2ncnc(Nc3ccc(O)cc3)c2cc1OC tested_system="Tyrosine-protein kinase CSK (Homo sapiens, UniProt P41240)" class_assignment="false (0)"
compound=Cn1c(=O)c(F)c(Nc2ccc(I)cc2F)c2c(=O)n(C[C@@H](O)CO)cnc21 tested_system="Tyrosine-protein kinase CSK (Homo sapiens, UniProt P41240)" class_assignment="false (0)"
compound=COc1cc(Nc2ncc(F)c(Nc3ccc4c(n3)N(COP(=O)(O)O)C(=O)C(C)(C)O4)n2)cc(OC)c1OC tested_system="Tyrosine-protein kinase CSK (Homo sapiens, UniProt P41240)" class_assignment="false (0)"
compound=Cc1cc(C(=O)Nc2cc(Oc3ccc4nc(NC(=O)C5CC5)cn4n3)ccc2C)n(C)n1 tested_system="Tyrosine-protein kinase CSK (Homo sapiens, UniProt P41240)" class_assignment="false (0)"
compound=CCN1CCN(Cc2ccc(Nc3ncc(F)c(-c4cc(F)c5nc(C)n(C(C)C)c5c4)n3)nc2)CC1 tested_system="Tyrosine-protein kinase CSK (Homo sapiens, UniProt P41240)" class_assignment="false (0)"
compound=CCc1nc(C(N)=O)c(Nc2ccc(N3CCC(N4CCN(C)CC4)CC3)c(OC)c2)nc1NC1CCOCC1 tested_system="Tyrosine-protein kinase CSK (Homo sapiens, UniProt P41240)" class_assignment="false (0)"
compound=CC(C)CC(=O)Nc1[nH]nc2c1CN(C(=O)C1CCN(C)CC1)C2(C)C tested_system="Tyrosine-protein kinase CSK (Homo sapiens, UniProt P41240)" class_assignment="false (0)"
compound=CN(c1ncccc1CNc1nc(Nc2ccc3c(c2)CC(=O)N3)ncc1C(F)(F)F)S(C)(=O)=O tested_system="Tyrosine-protein kinase CSK (Homo sapiens, UniProt P41240)" class_assignment="false (0)"
compound=Cn1cc(-c2[nH]c3cc(NC(=O)[C@H](N)C4CCCCC4)cc4c3c2C=NNC4=O)cn1 tested_system="Tyrosine-protein kinase CSK (Homo sapiens, UniProt P41240)" class_assignment="false (0)"
compound=O=C(Nc1ccc(OC(F)(F)F)cc1)c1sccc1NCc1ccnc2ccccc12 tested_system="Tyrosine-protein kinase CSK (Homo sapiens, UniProt P41240)" class_assignment="false (0)"
compound="COc1ccc(-c2ccc3ncc4c(c3c2)n(-c2ccc(N3CCNCC3)c(C(F)(F)F)c2)c(=O)n4C)cn1 [BGT-226 FREE BASE]" tested_system="Tyrosine-protein kinase CSK (Homo sapiens, UniProt P41240)" class_assignment="false (0)"
compound=COCCN1CCN(Cc2ccc(-c3n[nH]c4c3C(=O)c3c(NC(=O)NN5CCOCC5)cccc3-4)cc2)CC1 tested_system="Tyrosine-protein kinase CSK (Homo sapiens, UniProt P41240)" class_assignment="false (0)"
